target: Sodium/hydrogen exchanger 1 (Homo sapiens, UniProt P19634); test: Screened in AP1 cells expressing human NHE-1 for sodium hydrogen exchange activity
Sequence (P19634 whole entry): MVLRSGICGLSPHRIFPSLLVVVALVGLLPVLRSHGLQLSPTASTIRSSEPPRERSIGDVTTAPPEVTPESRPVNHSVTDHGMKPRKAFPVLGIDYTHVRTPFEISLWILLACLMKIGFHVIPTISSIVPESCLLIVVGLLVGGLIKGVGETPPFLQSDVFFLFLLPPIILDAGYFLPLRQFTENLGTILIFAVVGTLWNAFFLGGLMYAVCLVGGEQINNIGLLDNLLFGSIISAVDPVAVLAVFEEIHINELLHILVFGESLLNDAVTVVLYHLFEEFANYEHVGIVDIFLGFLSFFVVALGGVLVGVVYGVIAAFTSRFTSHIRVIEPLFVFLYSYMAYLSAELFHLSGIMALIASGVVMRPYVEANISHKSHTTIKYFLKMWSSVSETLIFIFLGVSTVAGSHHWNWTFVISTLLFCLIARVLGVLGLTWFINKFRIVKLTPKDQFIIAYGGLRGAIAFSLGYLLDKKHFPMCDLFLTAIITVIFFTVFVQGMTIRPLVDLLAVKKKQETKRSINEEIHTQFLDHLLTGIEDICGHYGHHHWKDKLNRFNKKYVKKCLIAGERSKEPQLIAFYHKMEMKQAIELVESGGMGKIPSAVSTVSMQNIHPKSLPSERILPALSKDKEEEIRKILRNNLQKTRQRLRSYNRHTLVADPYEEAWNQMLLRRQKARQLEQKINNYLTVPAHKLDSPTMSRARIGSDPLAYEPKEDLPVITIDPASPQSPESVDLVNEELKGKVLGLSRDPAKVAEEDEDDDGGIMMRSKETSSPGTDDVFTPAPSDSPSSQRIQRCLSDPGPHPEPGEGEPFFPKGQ
pIC50: −log10 of the molar value.
Property measured: pIC50

-- ask What pIC50 value was documented for this compound, CC(C)c1ccc(C(=O)NC(=N)N)cc1S(C)(=O)=O [CARIPORIDE] ?
-- reply 5.47

1. N=C(N)NC(=O)[C@H]1C[C@@H]1c1cccc(Cl)c1
2. CC1(C)[C@H](C(=O)N=C(N)N)[C@H]1c1cccc2c1CCO2
3. N=C(N)NC(=O)[C@H]1C[C@@H]1c1ccc(Cl)cc1
4. CCc1cc([C@@H]2[C@@H](C(=O)NC(=N)N)C2(C)C)ccc1F
-- ask Sequence the entries by pIC50, beginning with the highest number. State the ranking by listing the labels in the requested order.
-- reply 4, 2, 1, 3

* * *

Target: Sodium/hydrogen exchanger 2 (Homo sapiens)
Sequence (Q9UBY0 whole entry): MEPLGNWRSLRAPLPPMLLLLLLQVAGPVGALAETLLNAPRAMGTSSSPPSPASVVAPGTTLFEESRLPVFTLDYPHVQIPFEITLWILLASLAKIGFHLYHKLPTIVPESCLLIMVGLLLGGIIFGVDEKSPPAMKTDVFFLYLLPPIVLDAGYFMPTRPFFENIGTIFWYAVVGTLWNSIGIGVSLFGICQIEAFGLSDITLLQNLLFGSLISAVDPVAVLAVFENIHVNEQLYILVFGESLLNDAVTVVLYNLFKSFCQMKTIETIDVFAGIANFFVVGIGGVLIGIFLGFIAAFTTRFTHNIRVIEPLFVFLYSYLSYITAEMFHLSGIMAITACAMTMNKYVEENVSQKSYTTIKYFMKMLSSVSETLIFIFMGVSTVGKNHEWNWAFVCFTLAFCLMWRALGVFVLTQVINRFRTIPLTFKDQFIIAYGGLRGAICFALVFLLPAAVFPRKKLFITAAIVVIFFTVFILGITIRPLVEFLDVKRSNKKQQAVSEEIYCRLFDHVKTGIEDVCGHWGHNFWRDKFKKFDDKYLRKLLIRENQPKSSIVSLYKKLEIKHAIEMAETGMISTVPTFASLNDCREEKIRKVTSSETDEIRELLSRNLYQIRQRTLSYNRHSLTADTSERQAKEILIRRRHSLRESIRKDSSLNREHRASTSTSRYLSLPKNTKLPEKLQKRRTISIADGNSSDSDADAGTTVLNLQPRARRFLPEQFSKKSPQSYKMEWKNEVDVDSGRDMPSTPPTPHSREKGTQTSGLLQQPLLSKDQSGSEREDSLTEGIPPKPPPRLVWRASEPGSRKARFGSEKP
Test: Compound is screened in AP1 cells expressing human NHE-2 for sodium hydrogen exchange activity
pIC50: −log10 of the molar value.
Property measured: pIC50

-- ask Look up pIC50 for this molecule: CC(C)c1ccc(C(=O)NC(=N)N)cc1S(C)(=O)=O [CARIPORIDE]
-- reply 4.21

1. CC1(C)[C@H](C(=O)N=C(N)N)[C@H]1c1cccc2c1CCO2
2. Cc1cc(-n2cccc2)c(S(C)(=O)=O)cc1C(=O)NC(=N)N [ENIPORIDE]
-- ask # query: argmin of pIC50 over 1 and 2 Label of pick, please.
-- reply 2
(2: 4.77, 1: 5.74)

* * *

biological target: Sodium/hydrogen exchanger 5 (Homo sapiens); test: Compound is screened in AP1 cells expressing human NHE-5 for sodium hydrogen exchange activity
Sequence (Q14940 whole entry): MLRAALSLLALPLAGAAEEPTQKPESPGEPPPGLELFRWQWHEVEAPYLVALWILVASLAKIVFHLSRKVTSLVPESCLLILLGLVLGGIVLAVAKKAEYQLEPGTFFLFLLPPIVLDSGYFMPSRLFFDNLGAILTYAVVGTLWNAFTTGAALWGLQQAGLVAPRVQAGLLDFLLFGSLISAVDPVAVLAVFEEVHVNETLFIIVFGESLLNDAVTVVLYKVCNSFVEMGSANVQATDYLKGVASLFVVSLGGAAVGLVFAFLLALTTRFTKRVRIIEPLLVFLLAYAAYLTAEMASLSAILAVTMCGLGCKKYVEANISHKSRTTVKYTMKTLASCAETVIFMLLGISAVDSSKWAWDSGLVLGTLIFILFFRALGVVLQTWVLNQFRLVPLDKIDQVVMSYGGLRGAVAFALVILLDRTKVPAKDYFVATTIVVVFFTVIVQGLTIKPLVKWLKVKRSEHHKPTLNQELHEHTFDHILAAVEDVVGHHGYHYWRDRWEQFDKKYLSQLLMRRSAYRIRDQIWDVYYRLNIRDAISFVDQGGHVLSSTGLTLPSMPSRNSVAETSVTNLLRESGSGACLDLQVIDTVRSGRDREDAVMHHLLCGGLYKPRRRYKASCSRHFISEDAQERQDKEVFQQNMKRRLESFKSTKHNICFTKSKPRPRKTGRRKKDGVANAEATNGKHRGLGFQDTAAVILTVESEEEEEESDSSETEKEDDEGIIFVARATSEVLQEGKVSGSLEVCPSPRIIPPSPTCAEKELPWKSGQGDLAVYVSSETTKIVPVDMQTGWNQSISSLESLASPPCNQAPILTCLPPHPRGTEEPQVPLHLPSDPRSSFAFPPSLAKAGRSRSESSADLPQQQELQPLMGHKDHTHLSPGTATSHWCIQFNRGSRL
pIC50: −log10 of the molar value.
# pIC50 per entry

-- ask Kindly state the measured pIC50 obtained for "CC1(C)[C@H](C(=O)N=C(N)N)[C@H]1c1cccc2c1CCO2" with Sodium/hydrogen exchanger 5 (Homo sapiens).
-- reply 5.47

-- ask Next molecule: CC(C)c1ccc(C(=O)NC(=N)N)cc1S(C)(=O)=O [CARIPORIDE]
-- reply < 4.52

Next up:
-- ask Return pIC50 measured with Sodium/hydrogen exchanger 5 (Homo sapiens) given this molecule: Cc1cc(-n2cccc2)c(S(C)(=O)=O)cc1C(=O)NC(=N)N [ENIPORIDE]
-- reply < 4.52
